- measurement_target: Inhibitor of nuclear factor kappa-B kinase subunit epsilon (Homo sapiens) (UniProt Q14164);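 also: reported values are averaged percent inhibition figures against human IKKε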
- Sequence (Q14164 whole entry): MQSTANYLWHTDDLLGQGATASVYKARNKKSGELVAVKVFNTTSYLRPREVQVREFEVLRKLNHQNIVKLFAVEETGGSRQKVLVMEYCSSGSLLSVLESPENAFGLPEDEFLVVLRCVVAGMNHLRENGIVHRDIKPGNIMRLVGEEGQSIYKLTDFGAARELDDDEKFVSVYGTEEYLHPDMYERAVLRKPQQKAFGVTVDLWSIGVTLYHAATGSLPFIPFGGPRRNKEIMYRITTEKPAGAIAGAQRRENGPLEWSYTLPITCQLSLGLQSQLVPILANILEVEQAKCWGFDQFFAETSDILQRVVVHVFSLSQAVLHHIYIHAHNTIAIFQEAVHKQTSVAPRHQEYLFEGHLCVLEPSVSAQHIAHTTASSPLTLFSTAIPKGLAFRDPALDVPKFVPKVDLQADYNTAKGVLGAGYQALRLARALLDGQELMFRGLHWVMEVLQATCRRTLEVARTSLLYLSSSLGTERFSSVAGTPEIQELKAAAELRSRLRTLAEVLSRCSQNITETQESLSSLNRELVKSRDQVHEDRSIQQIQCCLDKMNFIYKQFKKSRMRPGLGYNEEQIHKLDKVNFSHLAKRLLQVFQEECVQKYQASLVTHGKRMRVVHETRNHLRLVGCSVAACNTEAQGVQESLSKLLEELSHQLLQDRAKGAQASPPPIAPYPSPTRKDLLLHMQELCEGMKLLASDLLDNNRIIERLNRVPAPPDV
- assay_context: at 1 µM
# binarize inhibition: threshold 10% inclusive, high side True, low side False

{"compound": "CC1=C(C(=O)Nc2ccc3[nH]nc(C)c3c2)C(c2ccc(C(F)(F)F)cc2)CC(=O)N1 (stereo not given)", "class_label": "False"}
{"compound": "Cc1ccc(-c2cc3c(NC(=O)C4CC4)ncnc3o2)cc1", "class_label": "False"}
{"compound": "Cc1c2ccc(N(C)c3ccnc(Nc4cccc(S(N)(=O)=O)c4)n3)cc2nn1C", "class_label": "False"}
{"compound": "Cc1cc(O)cc(C)c1/C=C/c1cncc(C(=O)OC(C)(C)C)c1", "class_label": "True"}
{"compound": "FC(F)(F)CNc1nccc(-c2cnn3ncccc23)n1", "class_label": "False"}
{"compound": "CN(C)CCNC(=O)Nc1ccc(N(C)c2ccnc(Nc3ccc(CS(C)(=O)=O)cc3)n2)cc1", "class_label": "False"}
{"compound": "COc1cc(Nc2ncc(-c3ccccc3)o2)cc(OC)c1", "class_label": "True"}
{"compound": "COc1c(C(N)=O)cc(-c2ccc(Cl)cc2)cc1-c1ccc(S(N)(=O)=O)cc1", "class_label": "False"}
{"compound": "CCCNc1cccc(-n2ncc3c(N/N=C/c4ccncc4)ncnc32)c1", "class_label": "True"}
{"compound": "Cc1cc(O)cc(C)c1/C=C/c1cncc(C(N)=O)c1", "class_label": "True"}

* * *

- measurement_target: Serine/threonine-protein kinase Sgk1 (Homo sapiens) (UniProt O00141)
- Sequence (O00141 whole entry): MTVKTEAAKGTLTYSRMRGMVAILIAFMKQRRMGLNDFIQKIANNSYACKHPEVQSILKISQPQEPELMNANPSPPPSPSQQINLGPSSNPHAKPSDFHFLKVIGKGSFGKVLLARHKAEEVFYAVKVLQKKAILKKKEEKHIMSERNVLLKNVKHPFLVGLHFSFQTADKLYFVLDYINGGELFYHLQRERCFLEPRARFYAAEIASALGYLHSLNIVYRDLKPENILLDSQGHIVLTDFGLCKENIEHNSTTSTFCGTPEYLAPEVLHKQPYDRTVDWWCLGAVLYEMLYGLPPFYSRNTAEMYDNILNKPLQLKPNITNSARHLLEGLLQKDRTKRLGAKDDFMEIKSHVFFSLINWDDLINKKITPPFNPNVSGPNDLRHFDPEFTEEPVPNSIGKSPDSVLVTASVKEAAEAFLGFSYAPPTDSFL
- assay_context: at 0.1 µM
- Description: GSK_PKIS: SGK1 mean inhibition at 0.1 uM [Nanosyn]
observable: inhibition (%)

{"compound": "Cc1cc(O)cc(C)c1/C=C/c1cncc(C(N)=O)c1", "display_unit": "%", "result_value": 1.6}
{"compound": "Fc1ccc(Nc2nccc(-c3c(-c4ccc(C(F)(F)F)cc4)nn4ncccc34)n2)cc1F", "display_unit": "%", "result_value": 2.17}
{"compound": "COc1ccc2ncn(-c3cc(O[C@H](C)c4ccccc4C(F)(F)F)c(C(N)=O)s3)c2c1", "display_unit": "%", "result_value": 0.33}
{"compound": "CCn1c(-c2nonc2N)nc2cncc(C(=O)NCCNC)c21", "display_unit": "%", "result_value": 3.75}
{"compound": "FC(F)(F)CNc1nccc(-c2cnn3ncccc23)n1", "display_unit": "%", "result_value": 1.25}
{"compound": "COc1ccc(-c2nn3ncccc3c2-c2ccnc(Nc3ccc(F)c(F)c3)n2)cc1", "display_unit": "%", "result_value": 3.06}
{"compound": "CC1=C(C(=O)Nc2ccc3[nH]ncc3c2)C(c2ccc(F)cc2)N=C(c2ccc(C(F)(F)F)nc2)N1 (configuration not stated)", "display_unit": "%", "result_value": 1.43}
{"compound": "CN(c1ccc(NC(=O)NCCN2CCOCC2)cc1)c1ccnc(Nc2ccc(CS(C)(=O)=O)cc2)n1", "display_unit": "%", "result_value": 2.3}
{"compound": "NC(=O)c1ccc2c(-c3ccnc(NCCCO)n3)c(-c3ccc(F)cc3)nn2c1", "display_unit": "%", "result_value": 2.62}
{"compound": "CS(=O)(=O)Nc1ccc(-c2ccc3c(NC(=O)C4CC4)n[nH]c3c2)cc1", "display_unit": "%", "result_value": 3.96}
{"compound": "O=C1Nc2ccccc2/C1=C1\\CCc2cc(O)ccc21", "display_unit": "%", "result_value": 6.47}
{"compound": "COc1cccc(Nc2nccc(-c3cnn4ncccc34)n2)c1", "display_unit": "%", "result_value": 1.84}
{"compound": "NS(=O)(=O)c1cccc(N/C=C2\\C(=O)Nc3ccccc32)c1", "display_unit": "%", "result_value": 6.58}
{"compound": "OCCCNc1nccc(-c2c(-c3ccc(F)cc3)nn3cc(C(F)(F)F)ccc23)n1", "display_unit": "%", "result_value": 2.5}
{"compound": "Fc1cccc(COc2ccc(Nc3ncncc3C#Cc3ccccc3)cc2Cl)c1", "display_unit": "%", "result_value": 3.17}
{"compound": "CCS(=O)(=O)c1ccc(OC)c(Nc2ncc(-c3cccc(C(C)=O)c3)o2)c1", "display_unit": "%", "result_value": 0.32}
{"compound": "CS(=O)(=O)CCNCc1ccc(-c2ccc3ncnc(Nc4ccc(OCc5cccc(C(F)(F)F)c5)cc4)c3c2)o1", "display_unit": "%", "result_value": 2.43}
{"compound": "COc1cc(Nc2ncc(-c3ccccc3)o2)cc(OC)c1", "display_unit": "%", "result_value": 3.1}
{"compound": "CN1CCC(n2cnc(-c3ccc(F)cc3)c2-c2ccnc(NCCO)n2)CC1", "display_unit": "%", "result_value": 3.61}
{"compound": "CCCNc1cccc(-n2ncc3c(N/N=C/c4ccncc4)ncnc32)c1", "display_unit": "%", "result_value": 2.34}
{"compound": "N#Cc1ccc2c(-c3ccnc(NC4CC4)n3)c(-c3ccc(F)cc3)nn2c1", "display_unit": "%", "result_value": 1.64}
{"compound": "CC1(C)CC(n2cnc(-c3ccc(F)cc3)c2-c2ccnc(N)n2)CC(C)(C)N1", "display_unit": "%", "result_value": 1.68}
